Where these numbers come from: patent US20110028472A1

pIC50: −log10 of the molar value.
The next entries give measured pIC50 for GST-ALK5 (Homo sapiens).
readoutLabel: pIC50

smilesEntry: C#CCNc1nc(-c2cccc(C)n2)c2c(N)c(C(N)=O)sc2n1
pIC50: 7.27

smilesEntry: CSc1nc(-c2ccco2)c2c(N)c(C(N)=O)sc2n1
pIC50: 7.01

smilesEntry: CC(C)(C)c1nc(-c2ccco2)c2c(N)c(C(N)=O)sc2n1
pIC50: 7.06

smilesEntry: Cc1cccc(-c2nc(NCCC#N)nc3sc(C(N)=O)c(N)c23)n1
pIC50: 7.10
